Target: T1, human GIP receptor (human, UniProt P48546 22-466)
T1 sequence (looked up): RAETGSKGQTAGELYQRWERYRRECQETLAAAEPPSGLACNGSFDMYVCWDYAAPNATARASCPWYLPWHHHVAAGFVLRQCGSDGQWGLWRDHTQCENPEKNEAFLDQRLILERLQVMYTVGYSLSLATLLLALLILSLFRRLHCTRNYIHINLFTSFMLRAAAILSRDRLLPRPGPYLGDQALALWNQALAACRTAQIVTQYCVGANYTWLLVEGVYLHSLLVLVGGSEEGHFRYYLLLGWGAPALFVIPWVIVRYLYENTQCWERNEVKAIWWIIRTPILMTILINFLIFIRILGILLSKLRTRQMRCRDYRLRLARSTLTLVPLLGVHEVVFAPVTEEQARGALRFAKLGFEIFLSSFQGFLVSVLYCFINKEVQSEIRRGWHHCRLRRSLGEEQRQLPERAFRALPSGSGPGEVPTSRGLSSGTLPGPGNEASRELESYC
Assay: cell-based or functional assay
Bridge positions count the residues as written; N and C are the ends. Square brackets hold non-standard residues; d marks the D form. Ends that are not written are not given here. * marks the point of attachment. Acetyl(2-(4-imidazolyl)) = O=C(Cc1c[nH]cn1)*; Aib = CC(C)(N)C(=O)O
Here, each record is paired with measured In vitro activity compared with native peptide (%) vs GIP (cAMP EC50) data.
quantity: In vitro activity compared with native peptide (%) vs GIP (cAMP EC50)

binder: H[Aib]QGTFTSDYSKYLDEKACKEFVQWLLAQ (bridge 16-20) [triple agonist of SEQ ID NO: 31]
unit.abbrev: %
result.modifier: =
result.number: 2.4
//
binder: [Acetyl(2-(4-imidazolyl))][Aib]QGTFTSDYSKYLDEKRQKEFVNWLLAQC (bridge 16-20) [triple agonist of SEQ ID NO: 86]
unit.abbrev: %
result.modifier: =
result.number: 0.2
//
binder: H[Aib]EGTFTSDYSIAMDEIHQKDFVDWLLAEC (bridge 16-20) [triple agonist of SEQ ID NO: 54]
unit.abbrev: %
result.modifier: =
result.number: 0.1
//
binder: H[Aib]QGTFTSDVSSYLDGQAAKEFVAWLLKGC [triple agonist of SEQ ID NO: 6]
unit.abbrev: %
result.modifier: <
result.number: 0.1
//
binder: H[Aib]QGTFTSDYSKYLDEKRQKEFVQWLLDTKC (bridge 16-20) [triple agonist of SEQ ID NO: 78]
unit.abbrev: %
result.modifier: =
result.number: 0.12
//
binder: Y[Aib]QGTFTSDYSKYLDEKRAKEFVQWLLCHHPSSGQPPPS (bridge 16-20) [triple agonist of SEQ ID NO: 95]
unit.abbrev: %
result.modifier: <
result.number: 0.1
//
binder: Y[Aib]QGTFTSDYSKYLDEKAAKEFVQWLLDHHPSSGQPPPSC (bridge 16-20) [triple agonist of SEQ ID NO: 75]
unit.abbrev: %
result.modifier: =
result.number: 18
//
binder: H[Aib]QGTFTSDVSKYLDGQAAKEFVAWLLKGC [triple agonist of SEQ ID NO: 7]
unit.abbrev: %
result.modifier: <
result.number: 0.1
//
binder: Y[Aib]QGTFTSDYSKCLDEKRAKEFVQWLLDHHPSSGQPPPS (bridge 16-20) [triple agonist of SEQ ID NO: 22]
unit.abbrev: %
result.modifier: =
result.number: 59.7
//
binder: {Acetyl(2-(4-imidazolyl))}-[Aib]QGTFTSDYSIAMDEKHCKDFVNWLLNTK (bridge 15-19) [triple agonist of SEQ ID NO: 60]
unit.abbrev: %
result.modifier: =
result.number: 8.2
//
binder: H[Aib]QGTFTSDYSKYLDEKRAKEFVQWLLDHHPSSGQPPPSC (bridge 16-20) [triple agonist of SEQ ID NO: 50]
unit.abbrev: %
result.modifier: =
result.number: 2.7
//
binder: [Acetyl(2-(4-imidazolyl))][Aib]QGTFTSDYSKYLDEKRQKEFVQWLLNTC (bridge 16-20) [triple agonist of SEQ ID NO: 81]
unit.abbrev: %
result.modifier: <
result.number: 0.1
//
binder: Y[Aib]QGTFTSDYSKCLDEKRAKDFVQWLLDHHPSSGQPPPS (bridge 16-20) [triple agonist of SEQ ID NO: 70]
unit.abbrev: %
result.modifier: =
result.number: 64.4
//
binder: [Acetyl(2-(4-imidazolyl))][Aib]QGTFTSDYSIAMDEIHQKDFVNWLLNTC (bridge 16-20) [triple agonist of SEQ ID NO: 87]
unit.abbrev: %
result.modifier: <
result.number: 0.1
//
binder: [Acetyl(2-(4-imidazolyl))][Aib]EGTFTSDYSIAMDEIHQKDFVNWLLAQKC (bridge 16-20) [triple agonist of SEQ ID NO: 90]
unit.abbrev: %
result.modifier: <
result.number: 0.1
//
binder: Y[Aib]QGTFTSDYSKYLDERACKDFVQWLLDHHPSSGQPPPS (bridge 16-20) [triple agonist of SEQ ID NO: 71]
unit.abbrev: %
result.modifier: =
result.number: 94.7
//
binder: H[Aib]QGTFTSDYSKYLDEKAQKEFVQWLLDTC (bridge 16-20) [triple agonist of SEQ ID NO: 30]
unit.abbrev: %
result.modifier: =
result.number: 0.8
//
binder: Y[Aib]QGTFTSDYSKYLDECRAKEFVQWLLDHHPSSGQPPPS (bridge 16-20) [triple agonist of SEQ ID NO: 21]
unit.abbrev: %
result.modifier: =
result.number: 22.7
//
binder: H[Aib]QGTFTSDVSSYLLGQAAKQFIAWLVKGGGPSSGAPPPSC [triple agonist of SEQ ID NO: 3]
unit.abbrev: %
result.modifier: <
result.number: 0.1
//
binder: Y[Aib]QGTFTSDYSKALDEKAAKEFVNWLLDHHPSSGQPPPSC (bridge 16-20) [triple agonist of SEQ ID NO: 98]
unit.abbrev: %
result.modifier: =
result.number: 47.1
//
binder: H[Aib]QGTFTSDYSKYLDEKRAQEFVCWLLAQKGKKNDWKHNIT [triple agonist of SEQ ID NO: 28]
unit.abbrev: %
result.modifier: <
result.number: 0.1
//
binder: [Acetyl(2-(4-imidazolyl))][Aib]QGTFTSDYSIAMDEIHQKDFVNWLLNTKC (bridge 16-20) [triple agonist of SEQ ID NO: 94]
unit.abbrev: %
result.modifier: <
result.number: 0.1
